# OD450 nm listing for each entry below
- assaySystem: Human CD79B Protein, His Tag (MALS verified), Cat. No. #CDB-H52H3-1mg, ACRO (human) (UniProt P40259)
- Sequence (P40259 29-159 limits assumed): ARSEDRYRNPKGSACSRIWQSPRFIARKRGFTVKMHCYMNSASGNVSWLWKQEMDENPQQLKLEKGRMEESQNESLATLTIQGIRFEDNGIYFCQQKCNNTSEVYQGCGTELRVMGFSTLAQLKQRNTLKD
- method: ELISA on coated antigen, anti-myc detection; 20ng antibody added
Report the figure in OD450 without appending any unit label.

anti-CD79B single-domain antibody JYB4 (VHH, Alpaca VHH from a phage library; not shown: His-tag protein at the C-terminal end) VHH: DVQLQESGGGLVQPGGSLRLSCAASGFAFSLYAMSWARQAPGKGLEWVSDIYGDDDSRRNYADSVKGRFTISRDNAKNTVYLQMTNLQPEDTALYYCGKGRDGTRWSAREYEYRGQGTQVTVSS
0.15

Given the binder anti-CD79B single-domain antibody JYB8 (VHH, not shown: small tags and cut ends) VHH: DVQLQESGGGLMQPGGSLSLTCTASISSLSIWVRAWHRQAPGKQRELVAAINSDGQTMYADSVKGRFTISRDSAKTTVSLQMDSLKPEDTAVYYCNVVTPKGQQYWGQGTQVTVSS , what is its reported OD450 nm? 0.145

What value of OD450 nm has been recorded for this entry: anti-CD79B single-domain antibody JYB10 (VHH, Alpaca VHH from a phage library; ELISA detected with an anti-myc antibody; a myc tag is not described; not shown: His-tag protein at the C-terminal end) VHH: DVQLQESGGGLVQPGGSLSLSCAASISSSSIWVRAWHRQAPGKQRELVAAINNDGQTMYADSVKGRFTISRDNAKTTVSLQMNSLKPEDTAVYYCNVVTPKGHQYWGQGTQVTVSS 0.0739

Look at this binder and give its reported OD450 nm. anti-CD79B single-domain antibody JYB14 (VHH, Alpaca VHH from a phage library; ELISA detected with an anti-myc antibody; a myc tag is not described; not shown: His-tag protein at the C-terminal end) VHH: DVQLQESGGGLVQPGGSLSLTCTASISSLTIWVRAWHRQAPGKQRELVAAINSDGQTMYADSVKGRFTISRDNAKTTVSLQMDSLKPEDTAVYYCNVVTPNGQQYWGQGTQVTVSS 0.139

Name the reported OD450 nm value associated with the binder anti-CD79B single-domain antibody JYB11 (VHH, Alpaca VHH from a phage library; ELISA detected with an anti-myc antibody; a myc tag is not described; not shown: His-tag protein at the C-terminal end) VHH: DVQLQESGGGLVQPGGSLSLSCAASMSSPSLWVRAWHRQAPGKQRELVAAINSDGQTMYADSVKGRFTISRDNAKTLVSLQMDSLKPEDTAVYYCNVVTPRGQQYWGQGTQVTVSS 0.0947
